Attribution: PubChem BioAssay (EPA / NIEHS)

Read-out: xenobiotic metabolism (CYP1A2), CYP1A2 (gene 1544)
Assay: CLD_CYP1A2_24hr: CellzDirect (CLD) Gene Expression Assay for xenobiotic metabolism (CYP1A2) at 24 hours (AID 2283683)
Protocol: CLD_24hr is a cell-based, multiplexed-readout assay that uses hepatocyte, a human liver primary cell, with measurements taken at 24 hours after chemical dosing in a 96-well plate.CLD_CYP1A2_24hr is one of 16 assay component(s) measured or calculated from the CLD_24hr assay. […] Furthermore, this assay endpoint can be referred to as a primary readout. […]
Results filed as inconclusive are left out. Calls of active or inactive are those of the source. Rule for the calls: active = hit-call score of the fitted dose curve at least 0.9, where 1 is the maximum; inconclusive = response in the unintended direction; inactive = score below 0.9.
Field 'call' accepts Y for active, N for inactive

Completed entries (count: 3):
>  <compound>
COP(=S)(OC)Oc1ccc([N+](=O)[O-])c(C)c1

>  <class assignment>
Y

$$$$
>  <compound>
CCOc1cc(C(C)(C)C)ccc1C1COC(c2c(F)cccc2F)=N1 (stereo unspecified)

>  <class assignment>
Y

$$$$
>  <compound>
CC(C)(C)C(=O)C(Oc1ccc(Cl)cc1)n1cncn1 (stereo unspecified)

>  <class assignment>
Y

$$$$

Lookup: // outcome(item) with item = CC(C)N1C(=O)N(c2ccccc2)CSC1=NC(C)(C)C
Found: N

Lookup: // outcome(item) with item = CCOC(=O)C(C)OC(=O)c1cc(Oc2ccc(C(F)(F)F)cc2Cl)ccc1[N+](=O)[O-] (stereo unspecified)
Found: Y

Lookup: // outcome(item) with item = CC1(C)CON(Cc2ccccc2Cl)C1=O
Found: N

* * *

Read-out: solute carrier (SLC22A1), SLC22A1 (gene 6580)
Assay: LTEA_HepaRG_SLC22A1: Life Technologies and Expression Analysis (LTEA) Assay for solute carrier (SLC22A1) using HepaRG (AID 2283524)
Details: mRNA level, 48 h; actives raise or lower the signal
Calls of active or inactive are those of the source. Rule for the calls: active = hit-call score of the fitted dose curve at least 0.9, where 1 is the maximum; inactive = score below 0.9.
Field 'call' accepts 1 for active, 0 for inactive

>  <compound>
CCCC(=NOCC)C1=C(O)CC(CC(C)SCC)CC1=O (stereo not drawn)

>  <class assignment>
0

$$$$

Lookup: // outcome(item) with item = O=C1C2CC=CCC2C(=O)N1SC(Cl)(Cl)Cl (stereo not drawn)
Found: 0

* * *

Test: CCTE_Shafer_MEA_dev_network_spike_number: CCTE's Neural Network Formation Assay for Number of Network Spikes, Shafer Lab (AID 2284048);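 note: synchronized bursts across electrodes counted on days 5 7 9 12 and integrated as AUC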;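 for AC50: fit as a loss of signal meaning fewer network spikes than DMSO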
Active and inactive are the calls of the source. The calls were made as follows: active = hit-call score of the fitted dose curve at least 0.9, where 1 is the maximum; inactive = score below 0.9.
measurement label: AC50

Examples with their reported AC50 follow.
>  <compound>
CCSC(=O)N1CCCCCC1

>  <value reported>
inactive

$$$$
>  <compound>
CC(C)=CC1C(C(=O)OCc2coc(Cc3ccccc3)c2)C1(C)C (stereo not drawn)

>  <value reported>
inactive

$$$$
>  <compound>
CS(=O)(=O)c1cc(C(F)(F)F)ccc1C(=O)c1cnoc1C1CC1

>  <value reported>
inactive

$$$$
>  <compound>
CCOC(=O)C(C)OC(=O)c1cc(Oc2ccc(C(F)(F)F)cc2Cl)ccc1[N+](=O)[O-] (stereo not drawn)

>  <value reported>
inactive

$$$$

Lookup: Please supply the value of reported AC50 for the item CCCN(CC)CC1COC2(CCC(C(C)(C)C)CC2)O1 (stereo not drawn)
Found: 0.0933 µM (active)

Lookup: Please supply the value of reported AC50 for the item C=C(C)CN(CC)c1c([N+](=O)[O-])cc(C(F)(F)F)cc1[N+](=O)[O-]
Found: 23.2 µM (active)

Lookup: Please supply the value of reported AC50 for the item O=C1C2CC=CCC2C(=O)N1SC(Cl)(Cl)Cl (stereo not drawn)
Found: inactive

Lookup: Please supply the value of reported AC50 for the item N#CN=C1SCCN1Cc1ccc(Cl)nc1
Found: inactive
